Tested on: EKVX NSCLC
measurementDescription: NCI tumour cell line growth inhibition, 48 h

molecule	unit	comparisonOperator	TGI
COc1cccc2c1C(=O)c1ccc3cc(CCl)cc(O)c3c1C2=O	µM	=	1.57
CCN1C(=O)N(CC)C2C1NN=c1s/c(=C\c3cc4ccccc4[nH]3)c(=O)n12 (stereo not drawn)	µM	>	100
CC(C)CCc1n[nH]c(=O)n1/N=C\c1ccccc1	µM	>	100
CCOC(=O)C1(C/C=C\CBr)CCCCCCCCCCC1=O (stereo not drawn)	µM	=	34.4
CSC1(SC2=NCCN2)SC2(NCCN2)S1	µM	=	40.5
CC(C)C1COC(c2cccc(C3=N[C@@H](C(C)C)CO3)n2)=N1 (stereo partly drawn)	µM	>	100
CCN(CC)C(=S)N=Nc1c(O)[nH]c2ccccc12	µM	=	11.5
COC(=O)C1=C(C)NC(C)=C(C(=O)OC)C1c1cccc(NO)c1	µM	=	70.9

---

Test system: IGROV1 ovarian
measurementDescription: NCI tumour cell line growth inhibition, 48 h; in the data active = GI50 below about 0.43 µM; inactive = the rest
Outcome codes: active, inactive

compound	assignedLabel
O=C(COc1cccc(/C=C2\COc3ccc(Cl)cc3C2=O)c1)c1ccc(Cl)cc1	inactive
CCCOC(=O)CCn1c(SC)nc2[nH]cc(-c3ccccc3)c2c1=O	inactive
FC(F)(F)c1ccc(-c2cnc(Cl)nc2NCc2cc(C(F)(F)F)cc(C(F)(F)F)c2)cc1	inactive
CC(=O)O[C@H]1CC[C@@]2(C)[C@@H](CC[C@@H]3[C@@H]2CC[C@]2(C)C=C(C=O)C[C@@H]32)C1	inactive
C/C=C/C=C/CCCCCCCCCCCCCC1(OC)C=CC(CC(=O)OC)OO1 (stereo not given)	inactive
N.N.NCCCCCCN.O=C([O-])CC(=O)[O-].O=C([O-])CC(=O)[O-].[Pt+4].[Pt+4]	inactive
CCOc1ccccc1/C=N\N=C(\N)N/N=C/c1ccccc1OCC	inactive
CCN1C(=O)N(CC)C2C1NN=c1s/c(=C\c3cc4ccccc4[nH]3)c(=O)n12 (stereo not given)	active
CCCCCCCOc1c(OC)cc(C2CC(=O)Nc3c2c(C)nn3-c2nc3ccccc3[nH]2)cc1OC (stereo not given)	inactive
CC(C)N1C(NNC(=O)c2cnccn2)=NS(=O)(=O)c2ccccc21	inactive
COc1ccc(-c2nn(-c3cccc(Cl)c3)cc2-c2cc(-c3ccccc3)nc(N)n2)cc1	inactive
Cn1ccnc1C(=O)/C=C/c1ccc(CC(=O)Nc2ccc(C(F)(F)F)cc2)cc1	inactive
CCOC(=O)c1nc(Nc2ccc(Cl)cc2)c2ccccc2n1	inactive
O=C(OCCBr)c1ccc(Cl)c([N+](=O)[O-])c1	inactive
Cc1c(Cl)cccc1NC1=C(Cl)C(=O)N(Cc2ccccc2)C1=O	inactive

---

Tested on: OVCAR-4 ovarian
measurementDescription: NCI tumour cell line growth inhibition, 48 h
propertyName: GI50

compound	propertyName	result
O=C(OCCBr)c1ccc(Cl)c([N+](=O)[O-])c1	GI50	10.2 µM
O=C(COc1cccc(/C=C2\COc3ccc(Cl)cc3C2=O)c1)c1ccc(Cl)cc1	GI50	14.9 µM
CSc1ccccc1C#Cc1ccccc1C#CCCCCO	GI50	17.7 µM
CCCCN(CCCC)c1ccc(C(=NC(C)CCCN(CC)CC)c2ccc(N(C)C)cc2)cc1 (configuration not stated)	GI50	1.09 µM
O=C(CN(/C=C/C(=O)C(F)(F)F)c1ccccc1)c1ccc(Cl)c(Cl)c1	GI50	20.3 µM
Nc1n[nH]c2ccc([C@@H]3Nc4ccc5[nH]ncc5c4[C@H]4C5C=CC(C5)[C@@H]34)cc12 (some centres not stated)	GI50	1.76 µM
COc1cc(C(=O)/C=C/c2cccnc2Nc2ccccc2)cc(OC)c1OC	GI50	1.45 µM

---

System: A549 NSCLC
measurementDescription: NCI tumour cell line growth inhibition, 48 h
*1 amine or outer side, *2 acyl side, *3 side chain or, on linkers, in order; H or OH if unused. Where a SMILES comes first, the peptide text is derived from it. [ ]: non-standard residue; d: D form. X33 = C=CCC(O[*:1])C(=O)[*:2]; NMeV = CN[CH](C(=O)O)C(C)C; NMeA = CN[CH](C)C(=O)O; βAla = NCCC(=O)O
// TGI lookup, one value per entry

compound	TGI
CCCOc1nc(SCCC)nc2c1cnn2-c1ccccc1	> 100 µM
CCOc1ccc(NCC2CC/C(=C\c3ccc(O)cc3)C2=O)cc1 (stereo not given)	48.6 µM
Nc1n[nH]c2ccc([C@@H]3Nc4ccc5[nH]ncc5c4[C@H]4C5C=CC(C5)[C@@H]34)cc12 (stereo not given in full)	> 85.2 µM
O=C(CCCSc1nc(-c2ccccc2)cc(-c2ccc(Cl)cc2)n1)NO	12.4 µM
O=C(OCCBr)c1ccc(Cl)c([N+](=O)[O-])c1	35.4 µM
CCOC(=O)C1=C(Nc2cccc3ccccc23)OC/C1=N\NC(=O)c1ccccc1O	> 100 µM
C=CCC1OC(=O)CCNC(=O)C(C)N(C)C(=O)C(C(C)C)N(C)C(=O)C(C(C)CC)NC(=O)C2CCCN2C1=O (stereo not given) (cyclo([X33]PI[NMeV][NMeA][βAla]); configuration not given here)	> 100 µM
N#Cc1cc([N+](=O)[O-])ccc1NC(=O)/C(=N/N)C(C(=O)c1ccc(Cl)c(Cl)c1)C1OC(=O)c2ccccc21 (stereo not given)	> 100 µM
C/C(=N\NC(=S)NC(C)(C)C)c1ccccn1	> 38.4 µM
O=C(CNC(=O)OCc1ccccc1)NCCCCC(NC(=O)OCc1ccccc1)C(=O)NC(CCCCNC(=O)CNC(=O)OCc1ccccc1)C(=O)OCc1ccccc1 (stereo not given)	> 62.5 µM
CC(=O)Nc1ccc(/C=C/C(=O)c2sc(-c3nc(C)c(C(=O)/C=C/c4ccc(NC(C)=O)cc4)s3)nc2C)cc1	> 100 µM
COC(=O)C1(Cc2ccc3c(c2)CCC3)Cc2ccc3c(c2C1)CCC3 (stereo not given)	> 100 µM
CC(=O)O[C@H]1CCn2c3c(c(C)c21)C(=O)C(N1CC1)=C(C)C3=O	7.83 µM
CCSc1nc(=[N+]2CCCC2)ss1	> 100 µM
CCCCOCCOC1=CC(=O)c2c(O)ccc(O)c2C1=O	3.41 µM
CS(=O)(=O)Nc1ccc(N=Cc2c(O)[nH]c3ccccc23)cc1	> 25 µM
CN(CCCN(C)CCc1ccc(Cl)c(Cl)c1)CCCN1CCCC1	11.2 µM
O=C(/C=C/c1ccc(Cl)cc1)c1cccs1	83.5 µM
O=C(Nc1nc(=S)c2c(ncn2CCO)[nH]1)c1ccccc1	> 100 µM
CCOP(=O)(CN=C(c1ccccc1)c1ccccc1)OCC	> 100 µM

---

System: OVCAR-8 ovarian
measurementDescription: NCI tumour cell line growth inhibition, 48 h
propertyName: TGI (µM)

compound	assayedSystem	comparisonOperator	readoutNumber
C/C=C/[C@@H]1OC(=O)C2=C[C@@H](O)[C@@H](/C=C/C)O[C@H]21	OVCAR-8 ovarian	=	34.1
FC(F)(F)c1ccc(-c2cnc(Cl)nc2NCc2cc(C(F)(F)F)cc(C(F)(F)F)c2)cc1	OVCAR-8 ovarian	>	100
Cc1c(Cl)cccc1NC1=C(Cl)C(=O)N(Cc2ccccc2)C1=O	OVCAR-8 ovarian	=	23.8
CC(C)/C(Cl)=N\OC(=O)Nc1ccc(F)cc1F	OVCAR-8 ovarian	=	31.6
O=C(CNC(=O)OCc1ccccc1)NCCCCC(NC(=O)OCc1ccccc1)C(=O)NC(CCCCNC(=O)CNC(=O)OCc1ccccc1)C(=O)OCc1ccccc1 (stereo not given)	OVCAR-8 ovarian	>	62.5

---

The entries below come with measured TGI values attached.
Tested on: A549 NSCLC
measurementDescription: NCI tumour cell line growth inhibition, 48 h

compound	TGI
CCc1nnc(-c2nsc3ccccc23)s1	> 100 µM
Nc1cc(N)c2nc(-c3ccccc3)c(NCc3ccc(F)cc3)nc2c1	34.9 µM
CC(c1ccccc1)/[N+]([O-])=C/c1ccccc1 (centres undefined)	> 100 µM
COC(=O)c1cc(-c2cccn2C)c2c(c1C(=O)OC)c1ccccc1n2C	> 100 µM

---

System: MALME-3M melanoma
measurementDescription: NCI tumour cell line growth inhibition, 48 h

molecule	assayedSystem	TGI
c1ccc(P(CCP(CCP(c2ccccc2)c2ccccc2)c2ccccc2)CCP(c2ccccc2)c2ccccc2)cc1 (stereo unspecified)	MALME-3M melanoma	> 10 µM
O=C1C(=Nc2ccccc2)Oc2cc(O)ccc21	MALME-3M melanoma	> 100 µM
COc1ccc(-c2c3c(nc4nc(SC)nc(SC)c24)CCCC3)cc1OC	MALME-3M melanoma	> 100 µM
O=C(Cc1ccccc1)NNc1nc(NNC(=O)c2ccncc2)nc(Nc2cccc(Cl)c2)n1	MALME-3M melanoma	> 10 µM
NC(=O)NC(=O)c1cccc(NC(=O)CF)c1	MALME-3M melanoma	> 100 µM
CCOc1cc2c(cc1OC(C)=O)C(=O)CC[C@H]1C3CC[C@H](OC(C)=O)[C@@]3(C)CC[C@H]21 (stereo partly specified)	MALME-3M melanoma	> 100 µM
CCCOc1nc(SCCC)nc2c1cnn2-c1ccccc1	MALME-3M melanoma	> 100 µM
COC(C)(C)CCc1[nH]c2ccccc2c1CC(=O)NCCc1cncn1C	MALME-3M melanoma	> 100 µM
NC(CCC(=O)O)(CCC(=O)O)CCC(=O)O	MALME-3M melanoma	> 100 µM
c1ccc(CSc2nnc3c4ccccc4c4ccccc4c3n2)cc1	MALME-3M melanoma	> 100 µM
CN(C)CC1CCCCCC(CN(C)C)C1=O (stereo unspecified)	MALME-3M melanoma	5.01 µM
CC(C)C[C@H](NC(=O)[C@@H](O)[C@H](N)Cc1ccc([N+](=O)[O-])cc1)C(=O)O	MALME-3M melanoma	> 25 µM
CCOc1cc2c(cc1O)/C(=N/NS(=O)(=O)c1ccc(C)cc1)C[C@@H]1[C@@H]2CC[C@]2(C)[C@@H](O)CC[C@@H]12	MALME-3M melanoma	> 100 µM
CC(C)CCc1n[nH]c(=O)n1/N=C\c1ccccc1	MALME-3M melanoma	> 100 µM
c1ccc(C2OCC(OC3CCCCO3)CO2)cc1 (stereo unspecified)	MALME-3M melanoma	> 100 µM
O=c1cc(N=Nc2ccc(O)cc2)[nH]c(=O)[nH]1	MALME-3M melanoma	89.2 µM
CCOC(=O)/C=C(\C(=O)OCC)n1ccc(=O)n(CC(=O)OCC)c1=O	MALME-3M melanoma	5.41 µM
COC1=CC(=O)c2c(O)c3c(c(O)c2C1=O)C=C(C)OC3O (stereo unspecified)	MALME-3M melanoma	0.877 µM
Nc1nc(N)c2[nH]cnc2n1 (tested in a mixture with another compound)	MALME-3M melanoma	> 100 µM
COC(=O)C1=C(O)c2cc3c(cc2[C@H](c2cc(OC)c(OC)c(OC)c2)C1C(=O)OC)OCO3 (stereo partly specified)	MALME-3M melanoma	87.3 µM
CC(C)(C)[Si](C)(C)OCCOCn1cc(F)c(=O)[nH]c1=O	MALME-3M melanoma	> 100 µM
